- testTarget: Casein kinase I isoform alpha (Homo sapiens, UniProt P48729); further: in the data inactive means no Kd found up to 30 µM
- Sequence (P48729 whole entry, canonical isoform): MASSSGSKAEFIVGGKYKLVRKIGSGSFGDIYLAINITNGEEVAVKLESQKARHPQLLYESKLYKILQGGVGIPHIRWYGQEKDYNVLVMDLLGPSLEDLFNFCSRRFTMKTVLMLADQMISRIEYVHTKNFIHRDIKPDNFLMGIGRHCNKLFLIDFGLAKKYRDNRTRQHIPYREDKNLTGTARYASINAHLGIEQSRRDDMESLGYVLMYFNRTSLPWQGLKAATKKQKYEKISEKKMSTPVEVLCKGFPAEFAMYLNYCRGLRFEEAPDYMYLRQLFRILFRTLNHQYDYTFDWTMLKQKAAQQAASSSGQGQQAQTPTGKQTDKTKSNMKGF
Activity calls are given as the source filed them.
Answer with one of the outcomes 1 for active, 0 for inactive

Asked: Please let me know the test result on file for COc1ccc(-c2ccc3ncc4c(c3c2)n(-c2ccc(N3CCNCC3)c(C(F)(F)F)c2)c(=O)n4C)cn1 [BGT-226 FREE BASE] .
Given back: 0

Asked: What classification did `N#CCNC(=O)c1ccc(-c2ccnc(Nc3ccc(N4CCOCC4)cc3)n2)cc1` end up with in this test?
Given back: 0

Asked: Name the outcome recorded for `CN1CCN(c2nc(C3=C(c4c[nH]c5ccccc45)C(=O)NC3=O)c3ccccc3n2)CC1` in the assay.
Given back: 0

Asked: Please let me know the test result on file for `O=C(NOC[C@H](O)CO)c1ccc(F)c(F)c1Nc1ccc(I)cc1F` .
Given back: 0

Asked: What did this assay record as the result for COc1cc2nccc(Oc3ccc(NC(=O)C4(C(=O)Nc5ccc(F)cc5)CC4)cc3)c2cc1OC [CABOZANTINIB] ?
Given back: 0

Asked: Returns: the outcome recorded for `COc1cccc2cc(-c3nc([C@H]4CC[C@H](C(=O)O)CC4)n4ncnc(N)c34)[nH]c12` in this assay.
Given back: 0

Asked: Returns: the outcome recorded for `CC(C)(O)CC(=O)NCCn1ccc2ncnc(Nc3ccc(Oc4cccc(C(F)(F)F)c4)c(Cl)c3)c21` in this assay.
Given back: 0

Asked: What outcome does the record of this test show for `COCCN1CCN(Cc2ccc(-c3n[nH]c4c3C(=O)c3c(NC(=O)NN5CCOCC5)cccc3-4)cc2)CC1` ?
Given back: 1
